- System: SK-MEL-28 melanoma
- assayDetails: NCI-60 one-dose screen, 48 h (100 = growth as untreated, 0 = no growth, -100 = all killed)
- runParameters: 10 µM
About 83,000 compounds went through this panel and 20% of them were active in at least one assay; those are over-represented in the sample as a whole.
Please respond with 1.0 when measured growth is strictly beneath 50%, and with 0.0 in all other cases.

[[record]]
smiles = "N=C(N)c1ccc(-c2ccc(-c3ccccc3)o2)nc1"
tgt = "SK-MEL-28 melanoma"
group = 0.0

[[record]]
smiles = "Cn1c([N+](=O)[O-])cnc1/C=C1\\Oc2cc(Cl)ccc2C1=O"
tgt = "SK-MEL-28 melanoma"
group = 1.0

[[record]]
smiles = "COC(=O)c1c(-c2ccccc2)csc1NC(=O)c1c(-c2ccccc2)noc1C"
tgt = "SK-MEL-28 melanoma"
group = 1.0

[[record]]
smiles = "Clc1nc(Cl)c2c(ncn2C/C=C\\Cn2cnc3c(Cl)nc(Cl)nc32)n1"
tgt = "SK-MEL-28 melanoma"
group = 1.0

[[record]]
smiles = "COc1cc(C(=O)/C=C/c2cc(-c3cc(OC)c(OC)c(OC)c3)n[nH]2)cc(OC)c1OC"
tgt = "SK-MEL-28 melanoma"
group = 1.0

